- system-under-test: CaV1.2^Q1060M (Homo sapiens, UniProt Q13936, Q1060M)
- Construct: superfolder GFP (sfGFP) (C); Twin-Strep (C); expressed in transfected cells; host or cells: HEK293T
- Sequence (Q13936 whole entry Q1060M): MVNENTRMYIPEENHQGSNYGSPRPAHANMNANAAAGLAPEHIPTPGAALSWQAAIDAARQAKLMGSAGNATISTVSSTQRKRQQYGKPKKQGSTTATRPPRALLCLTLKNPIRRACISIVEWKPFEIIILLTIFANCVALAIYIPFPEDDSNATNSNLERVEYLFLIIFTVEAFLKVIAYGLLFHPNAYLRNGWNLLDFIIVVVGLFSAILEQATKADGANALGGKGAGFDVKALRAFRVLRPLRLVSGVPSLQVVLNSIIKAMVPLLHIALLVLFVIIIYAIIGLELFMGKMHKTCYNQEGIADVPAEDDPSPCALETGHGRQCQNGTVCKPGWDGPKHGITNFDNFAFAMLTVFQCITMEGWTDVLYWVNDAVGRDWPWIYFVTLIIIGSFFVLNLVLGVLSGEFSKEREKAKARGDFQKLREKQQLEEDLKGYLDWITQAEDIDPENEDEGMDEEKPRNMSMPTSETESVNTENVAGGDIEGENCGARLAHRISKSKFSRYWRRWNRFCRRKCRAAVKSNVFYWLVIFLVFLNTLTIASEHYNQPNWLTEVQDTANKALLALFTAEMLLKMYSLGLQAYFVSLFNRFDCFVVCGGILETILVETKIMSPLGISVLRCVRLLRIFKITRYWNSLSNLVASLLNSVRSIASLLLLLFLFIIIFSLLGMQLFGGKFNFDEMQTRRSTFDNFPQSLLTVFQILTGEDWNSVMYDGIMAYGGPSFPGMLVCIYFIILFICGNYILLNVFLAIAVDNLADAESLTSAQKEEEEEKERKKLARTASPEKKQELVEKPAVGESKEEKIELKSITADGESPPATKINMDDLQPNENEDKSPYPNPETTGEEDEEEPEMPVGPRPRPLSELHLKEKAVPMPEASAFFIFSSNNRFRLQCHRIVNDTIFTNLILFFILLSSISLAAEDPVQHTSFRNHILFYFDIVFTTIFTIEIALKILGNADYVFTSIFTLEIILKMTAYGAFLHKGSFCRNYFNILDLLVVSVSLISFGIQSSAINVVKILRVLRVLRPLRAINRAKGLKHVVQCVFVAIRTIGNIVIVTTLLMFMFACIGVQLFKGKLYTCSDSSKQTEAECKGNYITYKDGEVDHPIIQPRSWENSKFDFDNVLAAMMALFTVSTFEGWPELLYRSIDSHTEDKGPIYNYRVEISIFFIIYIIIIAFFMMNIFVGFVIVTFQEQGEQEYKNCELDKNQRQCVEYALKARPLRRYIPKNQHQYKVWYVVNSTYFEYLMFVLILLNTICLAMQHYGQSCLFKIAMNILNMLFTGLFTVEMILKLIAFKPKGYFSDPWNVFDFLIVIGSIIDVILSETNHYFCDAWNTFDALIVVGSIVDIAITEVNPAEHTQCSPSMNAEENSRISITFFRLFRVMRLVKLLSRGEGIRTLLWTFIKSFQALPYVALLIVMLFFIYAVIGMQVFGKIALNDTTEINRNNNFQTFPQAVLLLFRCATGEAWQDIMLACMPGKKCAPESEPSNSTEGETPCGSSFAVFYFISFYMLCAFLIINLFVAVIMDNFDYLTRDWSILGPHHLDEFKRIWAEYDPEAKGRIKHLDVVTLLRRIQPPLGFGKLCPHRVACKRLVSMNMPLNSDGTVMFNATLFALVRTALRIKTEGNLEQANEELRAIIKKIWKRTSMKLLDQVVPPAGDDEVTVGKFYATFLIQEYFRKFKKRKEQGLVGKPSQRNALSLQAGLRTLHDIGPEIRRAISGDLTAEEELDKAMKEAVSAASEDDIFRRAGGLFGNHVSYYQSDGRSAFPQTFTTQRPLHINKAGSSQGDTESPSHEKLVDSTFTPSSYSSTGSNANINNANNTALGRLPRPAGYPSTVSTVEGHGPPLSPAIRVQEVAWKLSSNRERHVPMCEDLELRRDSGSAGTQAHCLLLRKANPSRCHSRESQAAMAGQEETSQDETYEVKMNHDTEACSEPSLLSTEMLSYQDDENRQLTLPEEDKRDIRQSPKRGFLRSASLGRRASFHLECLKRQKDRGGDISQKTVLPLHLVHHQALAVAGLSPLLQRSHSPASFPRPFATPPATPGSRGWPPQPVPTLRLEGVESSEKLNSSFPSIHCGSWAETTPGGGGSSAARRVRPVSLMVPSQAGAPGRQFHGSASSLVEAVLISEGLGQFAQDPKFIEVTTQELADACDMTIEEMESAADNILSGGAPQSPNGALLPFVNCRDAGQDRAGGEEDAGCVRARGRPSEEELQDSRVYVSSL
- Sequence (P54289 25-946 partner limits assumed): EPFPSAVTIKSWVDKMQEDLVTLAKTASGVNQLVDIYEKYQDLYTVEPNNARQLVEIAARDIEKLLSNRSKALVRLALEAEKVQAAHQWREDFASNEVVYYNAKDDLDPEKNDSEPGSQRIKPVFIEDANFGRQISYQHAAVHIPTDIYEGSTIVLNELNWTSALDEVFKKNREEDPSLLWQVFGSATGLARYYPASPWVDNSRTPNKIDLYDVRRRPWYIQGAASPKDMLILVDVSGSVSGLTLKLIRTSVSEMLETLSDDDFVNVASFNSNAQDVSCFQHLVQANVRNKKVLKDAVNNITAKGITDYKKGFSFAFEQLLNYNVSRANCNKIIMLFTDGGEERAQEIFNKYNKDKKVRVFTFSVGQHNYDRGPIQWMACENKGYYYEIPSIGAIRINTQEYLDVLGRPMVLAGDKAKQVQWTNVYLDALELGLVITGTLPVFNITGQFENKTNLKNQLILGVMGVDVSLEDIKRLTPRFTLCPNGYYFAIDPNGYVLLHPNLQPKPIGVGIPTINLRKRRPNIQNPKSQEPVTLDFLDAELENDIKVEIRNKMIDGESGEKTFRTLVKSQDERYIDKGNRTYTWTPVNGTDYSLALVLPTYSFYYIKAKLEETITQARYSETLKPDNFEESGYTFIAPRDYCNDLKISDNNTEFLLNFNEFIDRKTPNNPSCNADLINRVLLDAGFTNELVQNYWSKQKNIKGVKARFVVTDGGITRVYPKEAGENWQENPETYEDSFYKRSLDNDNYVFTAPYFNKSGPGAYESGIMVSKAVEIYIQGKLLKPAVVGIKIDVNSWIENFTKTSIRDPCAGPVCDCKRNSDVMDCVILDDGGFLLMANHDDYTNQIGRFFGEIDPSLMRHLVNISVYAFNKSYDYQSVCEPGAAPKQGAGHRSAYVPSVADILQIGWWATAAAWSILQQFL
- Sequence (P54289 947-1103 partner limits assumed): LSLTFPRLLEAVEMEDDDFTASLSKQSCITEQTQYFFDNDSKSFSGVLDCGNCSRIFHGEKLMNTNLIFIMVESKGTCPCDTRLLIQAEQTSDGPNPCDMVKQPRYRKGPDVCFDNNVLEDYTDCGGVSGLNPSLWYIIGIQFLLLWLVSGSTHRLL
- Sequence (Q08289 1-606 isoform Q08289-3 partner): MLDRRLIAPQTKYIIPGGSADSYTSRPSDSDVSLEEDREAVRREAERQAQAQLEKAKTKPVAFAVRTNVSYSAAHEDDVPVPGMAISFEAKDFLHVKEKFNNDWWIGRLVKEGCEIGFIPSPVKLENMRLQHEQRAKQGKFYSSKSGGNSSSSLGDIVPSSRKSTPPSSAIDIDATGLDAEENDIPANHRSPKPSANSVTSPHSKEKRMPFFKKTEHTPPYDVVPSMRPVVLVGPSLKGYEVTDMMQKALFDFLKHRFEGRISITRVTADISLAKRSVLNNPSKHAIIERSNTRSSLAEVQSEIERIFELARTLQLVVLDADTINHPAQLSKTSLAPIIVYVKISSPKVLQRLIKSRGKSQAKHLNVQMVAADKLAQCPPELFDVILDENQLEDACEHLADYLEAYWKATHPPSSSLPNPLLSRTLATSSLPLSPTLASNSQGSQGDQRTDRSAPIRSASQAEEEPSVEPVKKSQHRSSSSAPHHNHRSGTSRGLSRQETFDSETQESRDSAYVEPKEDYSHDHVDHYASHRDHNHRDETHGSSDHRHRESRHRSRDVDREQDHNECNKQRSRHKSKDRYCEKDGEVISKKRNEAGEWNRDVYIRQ
- assay-summary: whole-cell patch clamp inhibition curves in HEK293T cells, Q1060M mutant
- Assay type: cell-based
- assay-conditions: benidipine, Q1060M; variable slope fit; X values in μM per sheet Supplementary Figure 7c; read-out: IC50 (best-fit value)
- Method: Whole-cell voltage-clamp recordings were carried out using human embryonic kidney 293 T (HEK293T) cells, which were cultured in Dulbecco’s Modified Eagle Medium (DMEM, Gibco) supplemented with 10% (v/v) fetal bovine serum (FBS, PAN-Biotech) at 37 °C supplemented with 5% CO2. Three distinct recombinant baculoviruses encoding CaV1.2, α2δ1, and β2 were used to coinfect HEK293T cells once they reached a confluence of 40–60%. […] Data were analyzed with Clampfit 10.7. […]
test-readout: IC50 (µM)

[[record]]
compound = "COC(=O)C1=C(C)NC(C)=C(C(=O)OC2CCCN(Cc3ccccc3)C2)C1c1cccc([N+](=O)[O-])c1 (stereo not shown) [benidipine]"
system_under_test = "CaV1.2^Q1060M (Homo sapiens, UniProt Q13936, Q1060M)"
result_value = 7.46

